measured_target: T1, human TfR extracellular domain with N-terminal His tag (human, UniProt P02786 89-760)
T1 construct: Biotinylated in some assays; also called huTfR; HuTfR
T1 sequence (P02786 89-760 G142S): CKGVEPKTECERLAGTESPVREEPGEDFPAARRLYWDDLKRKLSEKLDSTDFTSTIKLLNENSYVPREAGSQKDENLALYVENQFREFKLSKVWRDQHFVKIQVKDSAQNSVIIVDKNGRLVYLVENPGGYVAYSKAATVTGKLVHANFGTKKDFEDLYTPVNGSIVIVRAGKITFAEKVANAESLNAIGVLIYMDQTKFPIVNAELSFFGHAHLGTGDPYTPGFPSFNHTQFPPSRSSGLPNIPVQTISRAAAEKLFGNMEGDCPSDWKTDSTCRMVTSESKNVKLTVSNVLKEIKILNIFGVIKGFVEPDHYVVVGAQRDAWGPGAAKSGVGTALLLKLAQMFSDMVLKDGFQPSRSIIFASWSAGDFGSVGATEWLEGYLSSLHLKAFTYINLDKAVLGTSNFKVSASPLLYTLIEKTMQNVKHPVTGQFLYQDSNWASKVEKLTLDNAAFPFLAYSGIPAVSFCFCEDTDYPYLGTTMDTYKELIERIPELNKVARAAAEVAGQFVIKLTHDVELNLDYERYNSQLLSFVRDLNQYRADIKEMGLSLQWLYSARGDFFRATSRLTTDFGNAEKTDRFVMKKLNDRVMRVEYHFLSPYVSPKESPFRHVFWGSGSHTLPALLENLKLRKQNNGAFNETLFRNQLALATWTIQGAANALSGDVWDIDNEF
run_description: SPR, TfR captured by anti-His, Fab injected
The entries below are paired with their reported koff.
Give the value in s⁻¹ but do not write s⁻¹ after it.

# annotated cases, reported koff shown
binder | unit_descriptor | koff
Hu15G11.v5.Fab (Fab, V domains shown, Fab) VH: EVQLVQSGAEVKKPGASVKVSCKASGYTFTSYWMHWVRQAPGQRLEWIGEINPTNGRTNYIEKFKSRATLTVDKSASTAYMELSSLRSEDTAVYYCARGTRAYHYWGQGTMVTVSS VL: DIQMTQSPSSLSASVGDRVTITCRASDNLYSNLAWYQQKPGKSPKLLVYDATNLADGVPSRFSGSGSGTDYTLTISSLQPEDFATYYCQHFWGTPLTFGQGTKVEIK | s⁻¹ | 0.00474
Hu15G11.HC34A Fab (Fab, V domains shown, Fab) VH: EVQLVQSGAEVKKPGASVKVSCKASGYTFTSYWAHWVRQAPGQRLEWIGEINPTNGRTNYIEKFKSRATLTVDKSASTAYMELSSLRSEDTAVYYCARGTRAYHYWGQGTMVTVSS VL: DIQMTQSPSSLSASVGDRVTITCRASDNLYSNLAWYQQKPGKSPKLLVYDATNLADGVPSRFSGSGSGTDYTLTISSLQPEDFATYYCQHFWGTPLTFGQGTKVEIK | s⁻¹ | 0.00403

We next turn to a different binder, shown below.
Data point: Hu15G11.HC51A Fab (Fab, V domains shown, Fab) VH: EVQLVQSGAEVKKPGASVKVSCKASGYTFTSYWMHWVRQAPGQRLEWIGEANPTNGRTNYIEKFKSRATLTVDKSASTAYMELSSLRSEDTAVYYCARGTRAYHYWGQGTMVTVSS VL: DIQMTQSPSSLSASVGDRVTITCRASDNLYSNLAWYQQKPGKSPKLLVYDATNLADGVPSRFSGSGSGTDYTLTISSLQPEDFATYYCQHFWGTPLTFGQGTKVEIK ; koff = 0.0104
